The values you see were collected from patent US20240150377A1.

# assayedSystem: CFTR (Homo sapiens, UniProt P13569, DEL508-508)
# Construct: endogenous in cells; host or cells: primary human bronchial epithelial cells from CF subjects (F508del/MF-HBE), differentiated at air-liquid interface
# Sequence (P13569 with tags, fused parts or gaps DEL508-508): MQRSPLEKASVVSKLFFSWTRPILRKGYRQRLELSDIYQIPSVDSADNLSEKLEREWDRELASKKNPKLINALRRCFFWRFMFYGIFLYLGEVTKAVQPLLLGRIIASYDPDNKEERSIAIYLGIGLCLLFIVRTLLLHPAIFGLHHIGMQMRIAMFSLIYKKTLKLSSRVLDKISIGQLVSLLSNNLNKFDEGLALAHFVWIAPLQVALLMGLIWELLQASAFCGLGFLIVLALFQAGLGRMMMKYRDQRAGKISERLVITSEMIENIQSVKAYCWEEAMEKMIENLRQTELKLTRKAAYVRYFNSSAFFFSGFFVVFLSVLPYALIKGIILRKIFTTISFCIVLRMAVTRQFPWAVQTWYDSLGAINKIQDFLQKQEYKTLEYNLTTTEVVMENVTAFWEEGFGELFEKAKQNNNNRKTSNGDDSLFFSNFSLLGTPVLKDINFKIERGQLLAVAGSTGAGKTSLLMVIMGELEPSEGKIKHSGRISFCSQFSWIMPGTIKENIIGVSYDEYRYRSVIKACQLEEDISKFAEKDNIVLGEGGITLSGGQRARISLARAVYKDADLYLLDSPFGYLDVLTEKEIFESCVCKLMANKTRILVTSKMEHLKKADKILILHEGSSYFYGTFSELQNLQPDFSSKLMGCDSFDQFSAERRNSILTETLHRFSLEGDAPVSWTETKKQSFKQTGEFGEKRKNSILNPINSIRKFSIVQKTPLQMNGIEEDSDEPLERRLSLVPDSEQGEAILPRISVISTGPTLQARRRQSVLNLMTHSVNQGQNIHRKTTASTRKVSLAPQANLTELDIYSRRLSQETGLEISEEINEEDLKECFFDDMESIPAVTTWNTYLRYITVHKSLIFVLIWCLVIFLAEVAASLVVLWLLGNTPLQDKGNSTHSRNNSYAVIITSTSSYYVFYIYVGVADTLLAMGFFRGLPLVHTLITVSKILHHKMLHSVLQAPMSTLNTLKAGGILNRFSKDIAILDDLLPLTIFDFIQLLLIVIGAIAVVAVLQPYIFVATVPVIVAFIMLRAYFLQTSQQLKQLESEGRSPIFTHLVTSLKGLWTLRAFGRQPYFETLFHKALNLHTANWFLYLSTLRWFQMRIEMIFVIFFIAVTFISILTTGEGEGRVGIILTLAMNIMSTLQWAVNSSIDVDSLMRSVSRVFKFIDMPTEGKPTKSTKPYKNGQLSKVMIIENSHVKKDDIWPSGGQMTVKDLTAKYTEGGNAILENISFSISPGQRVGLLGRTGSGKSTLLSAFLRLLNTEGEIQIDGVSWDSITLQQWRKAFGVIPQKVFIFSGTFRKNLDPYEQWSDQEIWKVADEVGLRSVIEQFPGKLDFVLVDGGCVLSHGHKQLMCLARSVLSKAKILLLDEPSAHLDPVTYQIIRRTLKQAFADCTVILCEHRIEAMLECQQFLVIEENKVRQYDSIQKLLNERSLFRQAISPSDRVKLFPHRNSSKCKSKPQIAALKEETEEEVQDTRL
# procedureText: HBE assay: Ussing chamber assay of CFTR-mediated short-circuit currents
# Format: cell-based
# testParameters: Table 12; read-out: HBE Max Activity (%)
# Experimental: 1. Ussing Chamber Assay of CFTR-Mediated Short-Circuit Currents […] To isolate the CFTR-mediated short-circuit (ISC) current, F508del/MF-HBE grown on Costar® Snapwell™ cell culture inserts were mounted in an Ussing chamber and the transepithelial ISC was measured under voltage-clamp recording conditions (Vhold=0 mV) at 37° C. […] The CFTR-mediated ISC (μA/cm^2) for each condition was determined from the peak forskolin response to the steady-state current following inhibition. […]
Measured Emax of individual entries

> print(dat)
                                        smi                             assayedsystem  endpointresult
1  Cc1cccc(C)c1-c1cc2nc(n1)NS(=O)(=O)c1cccc(c1)C(=O)N(Cc1cncc(C3CCCCC3)c1)[C@H](CC(C)(C)C)CO2  CFTR (Homo sapiens, UniProt P13569, DEL508-508)           > 60%

**Q:** Given the entry COC[C@H]1CCCN1c1cncc(CN2C(=O)c3cccc(c3)S(=O)(=O)Nc3nc(cc(-c4c(C)cccc4C)n3)OC[C@H]2CC(C)(C)C)n1 , report its measured Emax.
**A:** > 60%

**Q:** Given the entry Cc1cccc(C)c1-c1cc2nc(n1)NS(=O)(=O)c1cccc(c1)C(=O)N(Cc1ncc(N3CCC[C@@H]3C)cn1)[C@H](CC(C)(C)C)CO2 , report its measured Emax.
**A:** > 60%

**Q:** Given the entry Cc1cccc(C)c1-c1cc2nc(n1)NS(=O)(=O)c1cccc(c1)C(=O)N(Cc1ncc(N3C4CCC3COC4)cn1)[C@H](CC(C)(C)C)CO2 , report its measured Emax.
**A:** > 60%

**Q:** Given the entry Cc1cccc(C)c1-c1cc2nc(n1)NS(=O)(=O)c1cccc(c1)C(=O)N(Cc1cncc(N(C)CCOC(C)C)n1)[C@H](CC(C)(C)C)CO2 , report its measured Emax.
**A:** > 60%

**Q:** Given the entry Cc1cccc(C)c1-c1cc2nc(n1)NS(=O)(=O)c1cccc(c1)C(=O)N(Cc1ncc(OC(C)C)cn1)[C@H](C(C)C)CO2 , report its measured Emax.
**A:** < 30%

* * *

# assayedSystem: CFTR (Homo sapiens)
# procedureText: Membrane potential dye, Enteroid Assay A
# Type: cell-based
# testParameters: Table 7; human enteroid cells, 18-24 hours; acute 10 μM forskolin and 300 nM ivacaftor; read-out: Ent. A EC50
Measured EC50 of individual entries

> print(dat)
                                   compound  endpointresult
1  Cc1cccc(C)c1-c1cc2nc(n1)NS(=O)(=O)c1cccc(c1)C(=O)N(Cc1ccc(N3CCC(N(C)C)CC3)nc1)[C@H](CC(C)C)CO2 [Compound 945]       < 1000 nM
2  Cc1cccc(C)c1-c1cc2nc(n1)NS(=O)(=O)c1cccc(c1)CN(Cc1ccccc1-c1ccccc1)[C@H](CC(C)C)CO2 [Compound 1034]       < 1000 nM
3  Cc1cccc(C)c1-c1cc2nc(n1)NS(=O)(=O)c1cccc(c1)C(=O)N(CCC1CCOCC1)[C@H](CC1(C(F)(F)F)CC1)CO2 [Compound 681]       < 1000 nM
4  Cc1cccc(C)c1-c1cc2nc(n1)NS(=O)(=O)c1cccc(c1)CN(CCCC1(C(F)(F)F)CC1)[C@H](CC(C)C)CO2 [Compound 1023]       < 1000 nM

**Q:** Given the entry Cc1cccc(C)c1-c1cc2nc(n1)NS(=O)(=O)c1cccc(c1)CN(Cc1ccnnc1)[C@H](CC(C)C)CO2 [Compound 47] , report its measured EC50.
**A:** < 1000 nM

**Q:** Given the entry Cc1cccc(C)c1-c1cc2nc(n1)NS(=O)(=O)c1cccc(c1)C(=O)N(C)CC(c1ccc(C3=CCOCC3)cc1)O2 (stereo not drawn) [Compound 670] , report its measured EC50.
**A:** 1000 to 3000 nM
